Target Under Test: WIL-FL* (fluorescein-labeled WIL-FL LC dimer) (Homo sapiens, UniProt P01721, form not given/K101C)
Sequence (P01721 20-117 K101C, form open): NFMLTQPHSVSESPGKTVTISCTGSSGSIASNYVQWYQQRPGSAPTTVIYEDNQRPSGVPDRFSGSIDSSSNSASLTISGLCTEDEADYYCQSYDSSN
Test Protocol: Proteolysis-coupled fluorescence polarization
Assay type: biochemical
Condition Notes: WIL-FL* EC50 ratio to compound 1
Quantity Name: potency (EC50) increase compared to 1

Some solved cases for reference:
# Compound, potency (EC50) increase compared to 1
rows = [
    ("CCN(CC)c1ccc2c(C)c(CCOC(=O)NCc3cccc(NC(C)=O)c3)c(=O)oc2c1 [Compound 23]", "up to 22 fold"),
    ("CCN(CC)c1ccc2c(C)c(CCOC(=O)NCc3cccc(-c4c[nH]cn4)c3)c(=O)oc2c1 [Compound 26]", "42 fold"),
    ("CCN(CC)c1ccc2c(C)c(CCOC(=O)NCc3cccnc3)c(=O)oc2c1 [Compound 20]", "≤ 8 fold"),
    ("CCN(CC)c1ccc2c(C)c(CCOC(=O)NCc3cccc(C(N)=O)c3)c(=O)oc2c1 [Compound 25]", "up to 22 fold"),
    ("CCN(CC)c1ccc2c(C)c(CCOC(=O)NCC3CCCNC3)c(=O)oc2c1 (stereo not drawn) [Compound 18]", "≤ 8 fold"),
]

Lookup: Entry under review: CCN(CC)c1ccc2c(C)c(CCOC(=O)NCCc3cccnc3)c(=O)oc2c1 [Compound 21] . Reported potency (EC50) increase compared to 1?
Found: ≤ 8 fold
